# Tested target: MMP-9 (Homo sapiens, UniProt P14780)
# Construct: made in house; host or cells: MMP-9-transfected HT1080 cells (spent media)
# Sequence (P14780 107-707 limits assumed): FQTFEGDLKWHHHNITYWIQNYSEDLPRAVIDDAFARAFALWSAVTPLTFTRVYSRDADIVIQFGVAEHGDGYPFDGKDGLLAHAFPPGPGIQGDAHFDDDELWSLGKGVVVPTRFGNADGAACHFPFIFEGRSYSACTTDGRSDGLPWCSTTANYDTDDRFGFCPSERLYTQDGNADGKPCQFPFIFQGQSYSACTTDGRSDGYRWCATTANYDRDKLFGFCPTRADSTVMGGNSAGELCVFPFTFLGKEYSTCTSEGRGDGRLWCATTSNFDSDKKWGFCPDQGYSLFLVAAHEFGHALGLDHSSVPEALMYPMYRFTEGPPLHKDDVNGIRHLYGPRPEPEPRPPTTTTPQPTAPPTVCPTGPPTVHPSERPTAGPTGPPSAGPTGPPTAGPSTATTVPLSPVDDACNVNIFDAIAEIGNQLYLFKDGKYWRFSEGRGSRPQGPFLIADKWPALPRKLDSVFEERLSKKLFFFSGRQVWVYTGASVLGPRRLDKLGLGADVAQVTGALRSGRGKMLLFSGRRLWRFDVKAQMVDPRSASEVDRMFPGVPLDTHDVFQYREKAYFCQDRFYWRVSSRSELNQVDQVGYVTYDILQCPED
# Measurement notes: MMP-9 inhibition (in vitro Ki)
# Assay type: biochemical
# Run conditions: Table 9; read-out: MMP-9 Ki (IC-50)
Endpoint name: Ki (nM)

// below: answered compounds
| Input smiles | Ki, nM |
| --- | --- |
| O=C(NO)C1(S(=O)(=O)N2CCC(c3cnc(OCC4CC4)cn3)CC2)CCOCC1 | 0.72 |
| O=C(NO)C1(S(=O)(=O)N2CCC(CCc3ccccc3)CC2)CCOCC1 | 1.69 |
| CCOCc1ccc(C2CCN(S(=O)(=O)C3(C(=O)NO)CCOCC3)CC2)nc1 | 0.49 |
| CN(CC1CCCCC1)C(=O)CCCCC1CCN(S(=O)(=O)C2(C(=O)NO)CCOCC2)CC1 | 1820 |

[P] COCCN1CCC(C(=O)NO)(S(=O)(=O)N2CCC(c3ccc(CCC(F)(F)C(F)(F)F)cn3)CC2)CC1
[Q] O=C(NO)C1(S(=O)(=O)N2CCC(c3ccc(C#CCCO)cn3)CC2)CCOCC1
[R] O=C(NO)C1(S(=O)(=O)N2CCC(c3ccc(CCC(F)(F)F)cn3)CC2)CCCC1
[S] CCCCc1cnc(C2CCN(S(=O)(=O)C3(C(=O)NO)CCOCC3)CC2)nc1
Number of compounds to sort: 4. Sort criterion: Ki, ascending. Respond with an ordered listing of the labels, as requested.
R, P, Q, S
(R: 0.18 nM, P: 0.39 nM, Q: 1.07 nM, S: 2.02 nM)

[1] O=C(NO)C1(S(=O)(=O)N2CCC(c3ccc(CCC(F)(F)C(F)(F)F)cn3)CC2)CC=CC1
[2] O=C(NO)C1(S(=O)(=O)N2CCN(c3ccc(CCC(F)(F)C(F)(F)F)cn3)CC2)CCOCC1
Pick one, 1 or 2 : lowest reported Ki. Refer to your chosen item by its label in the answer.
1

[A] CC(C)CN(C)C(=O)CCCCC1CCN(S(=O)(=O)C2(C(=O)NO)CCOCC2)CC1
[B] O=C(NO)C1(S(=O)(=O)N2CCC(c3ccc(CCC(F)(F)C(F)(F)F)cn3)CC2)Cc2ccccc2C1
[C] O=C(CCCCC1CCN(S(=O)(=O)C2(C(=O)NO)CCOCC2)CC1)N1Cc2ccccc2C1
[D] CCCN(C(=O)CCCC1CCN(S(=O)(=O)C2(C(=O)NO)CCOCC2)CC1)c1ccccc1
In this exercise, place the 4 compounds in ascending sequence of their recorded Ki. Answer by listing the labels in the order asked for.
B, D, C, A

[I] O=C(NO)C1(S(=O)(=O)N2CCN(c3ccc(-c4nnn(CC(F)(F)F)n4)cc3)CC2)CCOCC1
[II] C/C(COc1ccc(C2CCN(S(=O)(=O)C3(C(=O)NO)CCOCC3)CC2)nc1)=N/O
[III] CCn1nnc(-c2ccc(N3CCN(S(=O)(=O)C4(C(=O)NO)CCOCC4)CC3)cc2)n1
[IV] O=C(NO)C1(S(=O)(=O)N2CCC(N3CCN(c4ccc(F)cc4)CC3)CC2)CCOCC1
Sort the compounds on Ki; start with the lowest figure. When ranking, write the labels in the order the request describes.
III, I, II, IV
(III: 0.55 nM, I: 0.84 nM, II: 10.2 nM, IV: 1620 nM)

---

# Tested target: MMP-13 (Homo sapiens)
# Construct: made in house; host or cells: baculovirus / insect cells
# Measurement notes: In vitro MMP inhibition, Ki determination (fluorogenic substrate II)
# Type: biochemical
# Run conditions: value not in parenthesis; read-out: MMP-13 Ki
pKi: −log10 of the molar value.
Endpoint name: pKi

| Input smiles | pKi |
| --- | --- |
| CCCCc1cnc(N2CCN(S(=O)(=O)C3(C(=O)NO)CCOCC3)CC2)nc1 | 8.73 |
| CCCCCc1cnc(N2CCN(S(=O)(=O)C3(C(=O)NO)CCOCC3)CC2)cn1 | 8.95 |
| COCCN1CCC(C(=O)NO)(S(=O)(=O)N2CCN(c3ccc(OCC(C)C)c(F)c3)CC2)CC1 | 9.15 |
| CCCCOc1ccc(N2CCN(S(=O)(=O)C3(C(=O)NO)CCN(C(=S)N(C)C)CC3)CC2)cc1 | 9.13 |
| CCCCOc1ccc(N2CCN(S(=O)(=O)C3(C(=O)NO)CCN(C(=O)OCC(F)(F)F)CC3)CC2)cc1 | 8.93 |
| CCCCOc1ccc(N2CCN(S(=O)(=O)C3(C(=O)NO)CCN(c4ncccn4)CC3)CC2)cc1 | 9.23 |
| CCCCOc1ccc(N2CCN(S(=O)(=O)C3(C(=O)NO)CCN(c4ncc(CC)cn4)CC3)CC2)cc1 | 8.47 |
| CCCCOc1ccc(N2CCN(S(=O)(=O)C3(C(=O)NO)CCN(CCN(CC)CC)CC3)CC2)cc1 | 9.52 |

[a] CCCCOc1ccc(N2CCN(S(=O)(=O)C3(C(=O)NO)CCN(c4ccc(OCCOC)nn4)CC3)CC2)cc1
[b] CCCCOc1ccc(N2CCN(S(=O)(=O)C3(C(=O)NO)CCN(c4ccc(O)cc4)CC3)CC2)cc1
Lab notebook, comparison: a versus b , higher pKi goes to which? Please identify the chosen entry by its label.
a

---

# Tested target: MMP-1 (Homo sapiens, UniProt P03956)
# Construct: made in house; host or cells: MMP-1-transfected HT-1080 cells (spent media)
# Sequence (P03956 100-469, species assumed): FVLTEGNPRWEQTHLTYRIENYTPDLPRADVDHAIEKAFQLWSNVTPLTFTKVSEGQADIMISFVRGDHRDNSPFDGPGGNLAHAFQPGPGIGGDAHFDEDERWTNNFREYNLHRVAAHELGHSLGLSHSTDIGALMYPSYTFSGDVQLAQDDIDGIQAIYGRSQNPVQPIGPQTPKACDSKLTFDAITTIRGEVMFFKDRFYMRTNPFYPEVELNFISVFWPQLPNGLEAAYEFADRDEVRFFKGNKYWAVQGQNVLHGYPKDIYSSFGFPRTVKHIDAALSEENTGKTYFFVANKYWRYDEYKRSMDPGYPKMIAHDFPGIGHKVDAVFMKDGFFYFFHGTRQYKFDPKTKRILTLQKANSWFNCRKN
# Measurement notes: MMP-1 inhibition (in vitro Ki)
# Type: biochemical
# Run conditions: Table 9; read-out: MMP-1 Ki (IC-50)
pKi: −log10 of the molar value.
Endpoint name: pKi

| Input smiles | Endpoint name | Observed measurement |
| --- | --- | --- |
| CCCN(C(=O)CCCC1CCN(S(=O)(=O)C2(C(=O)NO)CCOCC2)CC1)c1ccccc1 | pKi | < 5.00 |
| COCCCc1ccc(C2CCN(S(=O)(=O)C3(C(=O)NO)CCOCC3)CC2)nc1 | pKi | < 5.00 |

Missing value: pKi, MMP-1 (Homo sapiens, UniProt P03956), entry O=C(NO)C1(S(=O)(=O)N2CCC(c3cnc(OCC4CC4)cn3)CC2)CCOCC1 . Fill in?
< 5.00

---

# Tested target: MMP-14 (Homo sapiens, UniProt P50281)
# Construct: The catalytic domain enzyme was expressed in E. coli inclusion bodies, solubilized in urea; made in house
# Measurement notes: MMP-14 inhibition (in vitro Ki)
# Assay type: biochemical
# Run conditions: Table 8; read-out: MMP-14 Ki
Counter-ions that a name gives are not always drawn.
Endpoint name: Ki (µM)

[I] O=C(NO)C1(S(=O)(=O)N2CCC(CCCCOCCCC(F)(F)F)CC2)CCOCC1 [Example A40]
[II] O=C(NO)C1(S(=O)(=O)N2CCC(CCCCCC(F)(F)F)CC2)CCOCC1 [Example A43]
[III] O=C(NO)C1(S(=O)(=O)N2CCC(c3ccc(OCC(F)(F)C(F)(F)F)cn3)CC2)CCOCC1 [Example A58, Hydrochloride]
Order the items by recorded Ki; the first position goes to the largest value. Put the labels in the requested order and list them out.
III, I, II

---

Below is a list of entries, each paired with its recorded pKi value.
# Tested target: MMP-1 (Homo sapiens, UniProt P03956)
# Construct: made in house; host or cells: MMP-1-transfected HT-1080 cells (spent media)
# Measurement notes: MMP-1 inhibition (in vitro Ki)
# Type: biochemical
# Run conditions: Table 9; read-out: MMP-1 Ki (IC-50)
pKi: −log10 of the molar value.

| Input smiles | pKi |
| --- | --- |
| O=C(NO)C1(S(=O)(=O)N2CCN(c3ccc(CCC(F)(F)C(F)(F)F)cn3)CC2)CCOCC1 | < 5.00 |
| CN(CC1CCCCC1)C(=O)CCCC1CCN(S(=O)(=O)C2(C(=O)NO)CCOCC2)CC1 | < 5.00 |

Now for another entry.
What value of measured pKi is listed for O=C(NO)C1(S(=O)(=O)N2CCC(c3ccc(-c4nccs4)cn3)CC2)CCOCC1 ?
< 5.00

---

A collection of compounds and their measured Ki
# Tested target: MMP-9 (Homo sapiens)
# Construct: made in house; host or cells: MMP-9-transfected HT1080 cells (spent media)
# Measurement notes: In vitro MMP inhibition, Ki determination (fluorogenic substrate II)
# Type: biochemical
# Run conditions: value not in parenthesis
Write the number in nM without appending the unit.

| Input smiles | Ki (nM) |
| --- | --- |
| CCCCCCc1ccc(N2CCN(S(=O)(=O)C3(C(=O)NO)CCN(CCOC)CC3)CC2)cc1 | 0.892 |

Next up:
Item O=C(NO)C1(S(=O)(=O)N2CCN(c3ccc(COCC(F)(F)C(F)(F)C(F)(F)C(F)F)cc3)CC2)CCOCC1 has what recorded Ki?
208
